Target: aryl hydrocarbon receptor (AhR) (Mus musculus (Mouse), UniProt P30561)
Sequence (P30561 10-805): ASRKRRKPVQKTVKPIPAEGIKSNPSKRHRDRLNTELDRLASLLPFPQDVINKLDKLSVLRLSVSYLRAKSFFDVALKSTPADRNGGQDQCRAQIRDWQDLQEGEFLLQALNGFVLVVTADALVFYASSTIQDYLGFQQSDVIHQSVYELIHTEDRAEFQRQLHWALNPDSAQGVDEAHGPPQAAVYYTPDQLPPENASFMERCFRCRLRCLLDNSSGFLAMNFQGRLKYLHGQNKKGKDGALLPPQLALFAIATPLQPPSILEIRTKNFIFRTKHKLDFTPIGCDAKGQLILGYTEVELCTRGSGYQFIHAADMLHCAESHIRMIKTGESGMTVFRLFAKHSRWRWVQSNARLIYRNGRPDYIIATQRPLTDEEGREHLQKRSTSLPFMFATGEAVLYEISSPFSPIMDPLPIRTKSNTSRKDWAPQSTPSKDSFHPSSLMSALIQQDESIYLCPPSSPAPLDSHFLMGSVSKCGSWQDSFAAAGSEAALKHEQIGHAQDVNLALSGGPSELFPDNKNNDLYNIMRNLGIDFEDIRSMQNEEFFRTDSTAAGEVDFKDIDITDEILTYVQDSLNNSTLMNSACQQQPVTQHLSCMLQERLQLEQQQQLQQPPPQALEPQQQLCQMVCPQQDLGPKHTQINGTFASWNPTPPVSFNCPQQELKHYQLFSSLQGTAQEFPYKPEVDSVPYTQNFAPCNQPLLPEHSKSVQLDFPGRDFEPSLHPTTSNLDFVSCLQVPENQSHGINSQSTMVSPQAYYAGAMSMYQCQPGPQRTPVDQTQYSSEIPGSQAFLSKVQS
Sequence (P53762 whole entry partner): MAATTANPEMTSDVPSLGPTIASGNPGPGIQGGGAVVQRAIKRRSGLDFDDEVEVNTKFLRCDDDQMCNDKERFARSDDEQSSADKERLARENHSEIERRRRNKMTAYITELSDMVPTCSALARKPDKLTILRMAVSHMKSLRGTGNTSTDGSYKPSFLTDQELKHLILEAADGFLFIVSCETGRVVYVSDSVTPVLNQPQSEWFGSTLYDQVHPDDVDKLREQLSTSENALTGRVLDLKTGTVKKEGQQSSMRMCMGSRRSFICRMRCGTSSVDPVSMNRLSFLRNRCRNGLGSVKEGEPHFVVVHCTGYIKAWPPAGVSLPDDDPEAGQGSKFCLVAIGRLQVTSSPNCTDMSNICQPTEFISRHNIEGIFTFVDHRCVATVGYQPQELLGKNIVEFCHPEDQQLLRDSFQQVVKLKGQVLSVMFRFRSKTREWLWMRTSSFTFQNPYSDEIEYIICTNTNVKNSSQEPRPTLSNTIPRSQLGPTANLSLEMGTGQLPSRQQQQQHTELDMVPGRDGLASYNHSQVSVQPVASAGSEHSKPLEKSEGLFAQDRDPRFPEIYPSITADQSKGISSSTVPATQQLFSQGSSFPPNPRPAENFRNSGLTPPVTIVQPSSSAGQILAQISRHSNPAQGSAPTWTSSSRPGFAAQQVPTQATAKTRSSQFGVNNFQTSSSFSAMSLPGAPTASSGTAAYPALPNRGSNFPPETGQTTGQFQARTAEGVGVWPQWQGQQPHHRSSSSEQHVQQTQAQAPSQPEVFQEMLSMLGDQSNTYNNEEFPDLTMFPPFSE
Test: AhR ligand screening: AhRE-luciferase reporter in transfected Hepa1 cells
Assay type: cell-based
Conditions: fold change of luciferase expression at 10 uM test compound relative to vehicle (0.1% DMSO)
Measured Fold @ 10 uM, listed per entry.
Your answer is read as fold, so omit the unit and give the number.

> print(dat)
                           molecular.string                               measured.on  measure.name  result.units  recorded.value
1   O=C(c1ccc2ccccc2c1)c1c[nH]c2ccc(Cl)cc12  aryl hydrocarbon receptor (AhR) (Mus musculus (Mouse), UniProt P30561)  Fold @ 10 uM          fold               1
2  COC(=O)c1ccc2nc(-c3cccc4ccccc34)n(Cc3ccc(Cl)cc3)c2c1  aryl hydrocarbon receptor (AhR) (Mus musculus (Mouse), UniProt P30561)  Fold @ 10 uM          fold               9

-- ask Specify Fold @ 10 uM for O=S(=O)(c1ccc2ccccc2c1)n1c(-c2cccc3ccccc23)nc2ccc(Cl)cc21 and stop.
-- reply 40

-- ask Give reported Fold @ 10 uM value for COC(=O)c1ccc2c(c1)nc(-c1cccc3ccccc13)n2Cc1ccc(F)c(F)c1
-- reply 2

-- ask Tell us which Fold @ 10 uM value is on record for CN1CCN(C(=O)c2ccc3c(c2)nc(-c2cccc4ccccc24)n3S(=O)(=O)c2cccc(F)c2)CC1
-- reply 4
